- TESTED_TARGET: EGFR T790M L858R (Homo sapiens, UniProt P00533, L858R/T790M)
- Sequence (P00533 25-1210 T790M/L858R): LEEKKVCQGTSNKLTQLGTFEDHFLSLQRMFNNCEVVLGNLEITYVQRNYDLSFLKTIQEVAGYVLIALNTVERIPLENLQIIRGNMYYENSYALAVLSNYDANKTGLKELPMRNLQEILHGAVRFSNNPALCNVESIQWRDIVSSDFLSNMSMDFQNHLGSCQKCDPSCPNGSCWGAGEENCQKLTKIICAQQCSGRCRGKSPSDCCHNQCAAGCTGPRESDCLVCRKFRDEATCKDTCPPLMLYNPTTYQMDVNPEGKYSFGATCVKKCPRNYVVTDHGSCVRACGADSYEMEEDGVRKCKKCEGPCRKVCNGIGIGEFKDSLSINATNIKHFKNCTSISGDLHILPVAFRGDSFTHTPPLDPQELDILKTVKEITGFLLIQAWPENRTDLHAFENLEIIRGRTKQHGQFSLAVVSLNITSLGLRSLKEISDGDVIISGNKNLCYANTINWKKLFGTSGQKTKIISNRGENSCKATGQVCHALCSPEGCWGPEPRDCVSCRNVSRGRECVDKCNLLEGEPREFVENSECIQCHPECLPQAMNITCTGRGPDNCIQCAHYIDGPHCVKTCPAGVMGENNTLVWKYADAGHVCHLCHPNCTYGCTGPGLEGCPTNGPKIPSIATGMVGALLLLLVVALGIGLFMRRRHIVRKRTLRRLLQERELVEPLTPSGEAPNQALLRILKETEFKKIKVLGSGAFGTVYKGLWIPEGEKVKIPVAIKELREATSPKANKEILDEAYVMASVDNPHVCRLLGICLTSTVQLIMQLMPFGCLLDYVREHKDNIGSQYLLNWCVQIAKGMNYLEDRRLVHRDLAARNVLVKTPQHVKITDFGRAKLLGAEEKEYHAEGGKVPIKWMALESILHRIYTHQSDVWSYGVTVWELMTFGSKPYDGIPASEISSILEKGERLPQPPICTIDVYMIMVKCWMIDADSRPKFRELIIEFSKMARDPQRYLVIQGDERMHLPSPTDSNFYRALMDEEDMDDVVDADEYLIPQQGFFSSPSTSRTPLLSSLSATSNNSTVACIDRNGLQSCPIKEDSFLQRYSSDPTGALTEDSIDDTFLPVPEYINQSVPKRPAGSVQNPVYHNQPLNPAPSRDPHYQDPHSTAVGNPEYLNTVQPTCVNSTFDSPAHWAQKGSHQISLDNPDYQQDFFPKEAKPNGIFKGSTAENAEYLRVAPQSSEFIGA
- RUN_DESCRIPTION: Lance assay, EGFR T790M L858R
- PARTICULARS: biochemical Lance assay
READOUT: IC50

1) C=CC(=O)Nc1cc(-c2c(-c3cnn(C)c3)[nH]c3ncc(-c4cnn(CC(C)C)c4)cc23)ccc1C    100 to 500 nM
2) C=CC(=O)Nc1cc(-c2c(-c3cnn(C4COC4)c3)[nH]c3ncc(C(=O)OC(C)C)c(C)c23)ccc1C    ≤ 50 nM
3) C=CC(=O)Nc1cc(-c2c(-c3cnn(C)c3)[nH]c3ncc(C(=O)OC(C)C)cc23)ccc1C [Example 1, 2,2,2-trifluoroacetate]    ≤ 50 nM
4) C=CC(=O)Nc1cc(-c2c(-c3cnn(CC(C)O)c3)[nH]c3ncc(C(=O)OC(C)C)c(C)c23)ccc1C (stereo not shown)    50 to 100 nM
5) C=CC(=O)Nc1cc(-c2c(-c3cnn(C4CC4)c3)[nH]c3ncc(C(=O)OC(C)C)c(C)c23)ccc1C    50 to 100 nM
6) C=CC(=O)Nc1cc(-c2c(-c3cnn(C)c3)[nH]c3ncc(O[C@@H](C)CC)cc23)ccc1C [Example 12, 2,2,2-trifluoroacetate]    ≤ 50 nM
7) C=CC(=O)Nc1cc(-c2c(-c3cn(C)cn3)[nH]c3ncc(C(=O)OC(C)C)c(C)c23)ccc1C    50 to 100 nM

----------
- System: EGFR L858R T790M Ba/F3
- RUN_DESCRIPTION: CellTiter-Glo cell viability, EGFR L858R T790M Ba/F3
- Format: cell-based
- PARTICULARS: Mus musculus, BaF3, 72 h, read-out: EGFR L858R T790M Ba/F3 CTG IC50 /
pIC50: −log10 of the molar value.
READOUT: pIC50

1) C=CC(=O)Nc1cc(-c2c(-c3cnn(C)c3)[nH]c3ncc(-c4cnn(CCOC)c4)cc23)ccc1C [Example 33]    6.30 to 7.00
2) C=CC(=O)Nc1cc(-c2c(-c3cnn(C)c3)[nH]c3ncc(-c4ccnn4C)cc23)ccc1C [Example 27]    6.30 to 7.00
3) C=CC(=O)Nc1cc(-c2c(-c3cnn(C)c3)[nH]c3ncc(-c4cn(C)nc4C)cc23)ccc1C [Example 30]    6.30 to 7.00
4) C=CC(=O)Nc1cc(-c2c(-c3cnn(C)c3)[nH]c3ncc(-c4cnn(C)c4)cc23)ccc1C [Example 26, 2,2,2-trifluoroacetate]    6.30 to 7.00
5) C=CC(=O)Nc1cc(-c2c(-c3cnn(C)c3)[nH]c3ncc(-c4cnn(CCN(C)C)c4)cc23)ccc1C [Example 34]    5.00 to 6.00
6) C=CC(=O)Nc1cc(-c2c(-c3cnn(CCO)c3)[nH]c3ncc(C(=O)OC(C)C)c(C)c23)ccc1C [Example 23]    6.30 to 7.00
7) C=CC(=O)Nc1cc(-c2c(-c3cnn(C)c3)[nH]c3ncc(-c4cnn(CC(C)C)c4)cc23)ccc1C [Example 32]    6.30 to 7.00
8) C=CC(=O)Nc1cc(-c2c(-c3cnn(C)c3)[nH]c3ncc(-c4cnn(C5CC5)c4)cc23)ccc1C [Example 31]    ≥ 7.30
9) C=CC(=O)Nc1cc(-c2c(-c3cnn(C)c3)[nH]c3ncc(-c4cnn(CC)c4)cc23)ccc1C [Example 28]    7.00 to 7.30
10) C=CC(=O)Nc1cc(-c2c(-c3cnn(CC(C)O)c3)[nH]c3ncc(C(=O)OC(C)C)c(C)c23)ccc1C (stereo not drawn) [Example 24]    7.00 to 7.30
11) C=CC(=O)Nc1cc(-c2c(-c3cnn(C)c3)[nH]c3ncc(-c4cnn(C)c4C)cc23)ccc1C [Example 29]    ≥ 7.30
12) C=CC(=O)Nc1cc(-c2c(-c3cnn(C)c3)[nH]c3ncc(-c4cnn(C5COC5)c4)cc23)ccc1C [Example 35]    6.30 to 7.00
13) C=CC(=O)Nc1cc(-c2c(-c3cnn(C)c3)[nH]c3ncc(C(=O)OC(C)C)cc23)ccc1C [Example 1, 2,2,2-trifluoroacetate]    ≥ 7.30
14) C=CC(=O)Nc1cc(-c2c(-c3cn(C)cn3)[nH]c3ncc(C(=O)OC(C)C)c(C)c23)ccc1C [Example 25]    7.00 to 7.30
15) C=CC(=O)Nc1cc(-c2c(-c3cnn(C)c3)[nH]c3ncc(OCC(C)C)cc23)ccc1C [Example 4, 2,2,2-trifluoroacetate]    ≥ 7.30
16) C=CC(=O)Nc1cc(-c2c(-c3cnn(CCN(C)C)c3)[nH]c3ncc(C(=O)OC(C)C)c(C)c23)ccc1C [Example 15]    ≥ 7.30
17) C=CC(=O)Nc1cc(-c2c(-c3cnn(C)c3)[nH]c3ncc(C(=O)OC(C)C)c(C)c23)ccc1C [Example 7]    7.00 to 7.30
18) C=CC(=O)Nc1cc(-c2c(-c3cnn(CC)c3)[nH]c3ncc(C(=O)OC(C)C)cc23)cc(F)c1C [Example 5]    ≥ 7.30
